Source of measurements: ChEMBL document CHEMBL3885861

Each entry below carries its reported BUN.
species: Rattus norvegicus; assay: Open TG-GATES - Regimen: Daily Repeat; type: toxicity, organism-based, Sprague-Dawley; design: regimen Daily Repeat, gender Male, age 6 weeks; conditions: in vivo, po, 0 mg/kg, […], tissue Plasma, route gavage, dose level Control, time 28 day
Return type: number; implicit unit mg/dL.

Exercise: Requested read-out: BUN. Entry: CCC1(c2ccccc2)C(=O)NC(=O)NC1=O
Solution: 20

---

Each entry below carries its reported TP.
organism: Rattus norvegicus; assay: Open TG-GATES - Regimen: Daily Repeat; assay type: toxicity, organism-based, Sprague-Dawley; design: regimen Daily Repeat, gender Male, age 6 weeks; conditions: in vivo, po, 0 mg/kg, […], tissue Plasma, route gavage, dose level Control, time 28 day
Return type: number; implicit unit g/dL.

Some solved cases for reference:
>  <COMPOUND>
CC[C@H]1[C@@H]2C[C@H]3[C@@H]4N(C)c5ccccc5[C@]45C[C@@H]([C@@H]2[C@H]5O)N3[C@@H]1O

>  <REPORTED_MEASUREMENT>
6.2

$$$$
>  <COMPOUND>
CCC1(c2ccccc2)C(=O)NC(=O)NC1=O

>  <REPORTED_MEASUREMENT>
6.5

$$$$
>  <COMPOUND>
CC1=C(CC(=O)O)c2cc(F)ccc2/C1=C\c1ccc([S+](C)[O-])cc1 (stereo not given)

>  <REPORTED_MEASUREMENT>
6

$$$$
>  <COMPOUND>
CN(C)C(=N)N=C(N)N

>  <REPORTED_MEASUREMENT>
6.1

$$$$

Exercise: Requested read-out: TP. Entry: CCc1oc2ccccc2c1C(=O)c1cc(Br)c(O)c(Br)c1
Solution: 6.4

---

species on record: Rattus norvegicus; assay: Open TG-GATES - Regimen: Single; format: toxicity, organism-based, Sprague-Dawley; parameters: regimen Single, gender Male, age 6 weeks; conditions: in vivo, po, 0 mg/kg, 6 h, tissue Plasma, route gavage, dose level Control
READOUT_NAME: RALB
Units required after the number.

Some solved cases for reference:
>  <COMPOUND>
CCc1oc2ccccc2c1C(=O)c1cc(Br)c(O)c(Br)c1 [BENZBROMARONE]

>  <RALB>
3.8 g/dL

$$$$
>  <COMPOUND>
OCCOCCN1CCN(C(c2ccccc2)c2ccc(Cl)cc2)CC1 (stereo not given) [HYDROXYZINE]

>  <RALB>
2.5 g/dL

$$$$
>  <COMPOUND>
ClC(Cl)(Cl)Cl [CARBON TETRACHLORIDE]

>  <RALB>
3.3 g/dL

$$$$
>  <COMPOUND>
CN(C)C(=N)N=C(N)N [METFORMIN]

>  <RALB>
2.4 g/dL

$$$$
>  <COMPOUND>
CC1=C(CC(=O)O)c2cc(F)ccc2/C1=C\c1ccc([S+](C)[O-])cc1 (stereo not given)

>  <RALB>
2.5 g/dL

$$$$

Exercise: Requested read-out: RALB. Entry: CN(C)CCC=C1c2ccccc2COc2ccccc21 [DOXEPIN]
Solution: 2.4 g/dL

Exercise: Requested read-out: RALB. Entry: CC(C)N(CCC(C(N)=O)(c1ccccc1)c1ccccn1)C(C)C (stereo not given) [DISOPYRAMIDE]
Solution: 2.9 g/dL

Exercise: Requested read-out: RALB. Entry: CCC1(c2ccccc2)C(=O)NC(=O)NC1=O [PHENOBARBITAL]
Solution: 3.3 g/dL

Exercise: Requested read-out: RALB. Entry: O=NN(CCCl)C(=O)NC1CCCCC1 [LOMUSTINE]
Solution: 3.7 g/dL

Exercise: Requested read-out: RALB. Entry: CC[C@H]1[C@@H]2C[C@H]3[C@@H]4N(C)c5ccccc5[C@]45C[C@@H]([C@@H]2[C@H]5O)N3[C@@H]1O [AJMALINE]
Solution: 3.5 g/dL

---

Each entry below carries its reported TBIL.
species on record: Rattus norvegicus; assay: Open TG-GATES - Regimen: Daily Repeat; format: toxicity, organism-based, Sprague-Dawley; parameters: regimen Daily Repeat, gender Male, age 6 weeks; conditions: in vivo, po, 0 mg/kg, […], tissue Plasma, route gavage, dose level Control, time 7 day
Return type: number; implicit unit mg/dL.

Some solved cases for reference:
>  <COMPOUND>
ClC(Cl)(Cl)Cl [CARBON TETRACHLORIDE]

>  <MEASUREMENT_UNIT>
mg/dL

>  <TBIL>
0.2

$$$$
>  <COMPOUND>
CCc1oc2ccccc2c1C(=O)c1cc(Br)c(O)c(Br)c1

>  <MEASUREMENT_UNIT>
mg/dL

>  <TBIL>
0.3

$$$$
>  <COMPOUND>
CCCCc1oc2ccccc2c1C(=O)c1cc(I)c(OCCN(CC)CC)c(I)c1

>  <MEASUREMENT_UNIT>
mg/dL

>  <TBIL>
0.2

$$$$

Exercise: Requested read-out: TBIL. Entry: O=NN(CCCl)C(=O)NC1CCCCC1
Solution: 0.3

Exercise: Requested read-out: TBIL. Entry: CC[C@H]1[C@@H]2C[C@H]3[C@@H]4N(C)c5ccccc5[C@]45C[C@@H]([C@@H]2[C@H]5O)N3[C@@H]1O
Solution: 0.3

---

organism: Rattus norvegicus; test: Open TG-GATES - Regimen: Single; assay type: toxicity, organism-based, Sprague-Dawley; design: regimen Single, gender Male, age 6 weeks; conditions: in vivo, po, 0 mg/kg, 9 h, tissue Liver, route gavage, dose level Control
Each entry below carries its reported LIVER.
Units required after the number.

Exercise: Requested read-out: LIVER. Entry: CCC1(c2ccccc2)C(=O)NC(=O)NC1=O
Solution: 9 g

Exercise: Requested read-out: LIVER. Entry: CN(C)CCC=C1c2ccccc2COc2ccccc21 [DOXEPIN]
Solution: 7.5 g

Exercise: Requested read-out: LIVER. Entry: CN(C)C(=N)N=C(N)N
Solution: 7.7 g

---

Each entry below carries its reported ALT.
species: Rattus norvegicus; test: Open TG-GATES - Regimen: Daily Repeat; assay type: toxicity, organism-based, Sprague-Dawley; set-up: regimen Daily Repeat, gender Male, age 6 weeks; conditions: in vivo, po, 0 mg/kg, 72 h, tissue Plasma, route gavage, dose level Control, time 3 day
Return type: number; implicit unit IU/L.

>  <COMPOUND>
CN(C)C(=N)N=C(N)N

>  <READOUT_NAME>
ALT

>  <REPORTED_MEASUREMENT>
69.8

$$$$
>  <COMPOUND>
CCc1oc2ccccc2c1C(=O)c1cc(Br)c(O)c(Br)c1

>  <READOUT_NAME>
ALT

>  <REPORTED_MEASUREMENT>
34.6

$$$$
>  <COMPOUND>
O=NN(CCCl)C(=O)NC1CCCCC1

>  <READOUT_NAME>
ALT

>  <REPORTED_MEASUREMENT>
33.6

$$$$
>  <COMPOUND>
CC(C)N(CCC(C(N)=O)(c1ccccc1)c1ccccn1)C(C)C (stereo unspecified) [DISOPYRAMIDE]

>  <READOUT_NAME>
ALT

>  <REPORTED_MEASUREMENT>
49.6

$$$$
>  <COMPOUND>
CN(C)CCC=C1c2ccccc2COc2ccccc21 [DOXEPIN]

>  <READOUT_NAME>
ALT

>  <REPORTED_MEASUREMENT>
46

$$$$

Exercise: Requested read-out: ALT. Entry: OCCOCCN1CCN(C(c2ccccc2)c2ccc(Cl)cc2)CC1 (stereo unspecified) [HYDROXYZINE]
Solution: 46.2

Exercise: Requested read-out: ALT. Entry: ClC(Cl)(Cl)Cl [CARBON TETRACHLORIDE]
Solution: 44.8

Exercise: Requested read-out: ALT. Entry: CCC1(c2ccccc2)C(=O)NC(=O)NC1=O
Solution: 34

Exercise: Requested read-out: ALT. Entry: CC1=C(CC(=O)O)c2cc(F)ccc2/C1=C\c1ccc([S+](C)[O-])cc1 (stereo unspecified)
Solution: 44

Exercise: Requested read-out: ALT. Entry: CCCCc1oc2ccccc2c1C(=O)c1cc(I)c(OCCN(CC)CC)c(I)c1
Solution: 37.8

Exercise: Requested read-out: ALT. Entry: CC[C@H]1[C@@H]2C[C@H]3[C@@H]4N(C)c5ccccc5[C@]45C[C@@H]([C@@H]2[C@H]5O)N3[C@@H]1O
Solution: 37

---

Each entry below carries its reported A/G.
organism: Rattus norvegicus; assay: Open TG-GATES - Regimen: Single; format: toxicity, organism-based, Sprague-Dawley; parameters: regimen Single, gender Male, age 6 weeks; details: in vivo, po, 0 mg/kg, 24 h, tissue Plasma, route gavage, dose level Control
Please give the numeric answer without any surrounding text.

Some solved cases for reference:
>  <COMPOUND>
O=NN(CCCl)C(=O)NC1CCCCC1 [LOMUSTINE]

>  <A/G>
2.1

$$$$
>  <COMPOUND>
CC[C@H]1[C@@H]2C[C@H]3[C@@H]4N(C)c5ccccc5[C@]45C[C@@H]([C@@H]2[C@H]5O)N3[C@@H]1O [AJMALINE]

>  <A/G>
2.1

$$$$
>  <COMPOUND>
O=NN1CCOCC1 [N-NITROSOMORPHOLINE]

>  <A/G>
1

$$$$
>  <COMPOUND>
ClC(Cl)(Cl)Cl [CARBON TETRACHLORIDE]

>  <A/G>
1.6

$$$$

Please look at the following compound next.
Exercise: Requested read-out: A/G. Entry: CC1=C(CC(=O)O)c2cc(F)ccc2/C1=C\c1ccc([S+](C)[O-])cc1 (stereo not given)
Solution: 0.9
